Data credit: patent EP4596561A1

- Assay method text: Saturated solubility in FaSSIF solution
- Format: physicochemical
- Run parameters: room temperature, stirred overnight
Measured parameter: FaSSIF(pH = 6.5)

The cases that follow already have their FaSSIF(pH = 6.5) on record.
Molecule: Cc1ccc(Oc2ccc(C(F)(F)F)cc2)c2ccc(P(C)(C)=O)cc12 [Example 24]
Test result: 193.3 ug/mL
//
Molecule: CNS(=O)(=O)c1cnc(Oc2ccc(C(F)(F)F)cc2)c(-c2cn3c(n2)CCC3)c1 [Comparative compound B4, reference compound]
Test result: 36.2 ug/mL
//
Molecule: CP(C)(=O)c1ccc2c(c1)c1ccccc1n2-c1ccc(C(F)(F)F)cc1 [Example 1]
Test result: >950.5 ug/mL

// next item, FaSSIF(pH = 6.5) requested
Quick one: FaSSIF(pH = 6.5) for CP(C)(=O)c1ccc2c(Oc3ccc(C(F)(F)F)cc3)cccc2c1 [Example 7] ?
1499.5 ug/mL

====

Exercise: state measured bioavailability for each of the molecules provided.
- Assay method text: Pharmacokinetic test in mice (low dose)
- Assay type: in vivo, Balb/c mice
- Run parameters: mouse, plasma; mice, PO 10 mg/kg vs IV 2 mg/kg; read-out: F%
Answers are plain numbers, in %.

Smiles input: CP(C)(=O)c1ccc2c(c1)c1cccnc1n2-c1ccc(C(F)(F)F)cc1
bioavailability / %: 318

Please go through the list and note bioavailability for each molecule.
1. CP(C)(=O)c1ccc2c(c1)c1ncccc1n2-c1ccc(C(F)(F)F)cc1
2. Cc1cc(Oc2ccc(C(F)(F)F)cc2)c2ccc(P(C)(C)=O)cc2c1
3. CP(C)(=O)c1ccc(Nc2ccc(C(F)(F)F)cc2)c(-c2ccccn2)c1
4. CP(C)(=O)c1ccc(Nc2ccc(C(F)(F)F)cc2)c(-c2ncccn2)c1

163
99
98
100

====

- System: YAP-TEAD transcription complex
- Assay method text: YAP-TEAD reporter gene assay (dual luciferase, stably transfected 293T cells)
- Assay type: cell-based
- Run parameters: Homo sapiens, HEK-293T, 24 h
Field: log10(IC50). Provide a value for each of the molecules that follow.
Log10 applied to IC50; unit prior to transform: µM.

// known answers, use as guide
Molecule: Cn1cc2c3cc(P(C)(C)=O)ccc3n(-c3ccc(C(F)(F)F)cc3)c2n1 [Example 16]
log10(IC50): -1.50
//
Molecule: Cn1cnc(-c2cc(P3(=O)CCOCC3)ccc2Nc2ccc(C(F)(F)F)cc2)c1 [Example 23]
log10(IC50): -1.56
//
Molecule: CP(C)(=O)c1cnc(Nc2ccc(C(F)(F)F)cc2)c(-c2cn3c(n2)CCC3)c1 [Example 22]
log10(IC50): -1.87
//
Molecule: Cn1cnc(-c2cc(P(C)(C)=O)ccc2Nc2ccc3c(c2)OC(F)(F)O3)c1 [Example 30]
log10(IC50): -1.63
//
Molecule: CP(C)(=O)c1cnc(Nc2ccc(C(F)(F)F)cc2)c(-c2ccccn2)c1 [Example 33]
log10(IC50): -1.70

Field: log10(IC50). Fill in for each record below.
1. Cn1cnc(-c2cc(P(C)(C)=O)ccc2Nc2ccc(C(F)(F)F)cc2)c1 [Example 14]
2. Cn1cnc(-c2cc(P(C)(C)=O)cnc2Nc2ccc(C(F)(F)F)cc2)c1 [Example 8]
3. CP(C)(=O)c1cnc(Nc2ccc(S(F)(F)(F)(F)F)cc2)c(-c2cn3c(n2)CCC3)c1 [Example 37]

1: -1.69; 2: -1.37; 3: -2.23

Could you tell me log10(IC50) for each of these molecules? They are listed below.
1. CP(C)(=O)c1cnc(Nc2ccc(Cl)cc2)c(-c2cn3c(n2)CCC3)c1 [Example 38]
2. CP(C)(=O)c1ccc2c(c1)c1ccccc1n2-c1ccc(C(F)(F)F)cc1 [Example 1]
3. Cn1cnc(-c2cc(P(C)(C)=O)ccc2Nc2ccc(Cl)cc2)c1 [Example 32]

[-1.54, -1.40, -1.11]

====

- Assay method text: Pharmacokinetic test in mice (low dose)
- Format: in vivo, Balb/c mice
- Run parameters: mouse, plasma; mice, PO 10 mg/kg; read-out: Cmax
Measured parameter: Cmax (µM)
Give bare numbers, in µM.

Some compounds with recorded Cmax:
Compound: Cc1cc(Oc2ccc(C(F)(F)F)cc2)c2ccc(P(C)(C)=O)cc2c1 [Example 29]
Measured parameter: Cmax
Test result: 13.3
//
Compound: CP(C)(=O)c1ccc2c(c1)c1cccnc1n2-c1ccc(C(F)(F)F)cc1 [Example 5]
Measured parameter: Cmax
Test result: 15.5
//
Compound: CP(C)(=O)c1ccc(Nc2ccc(C(F)(F)F)cc2)c(-c2ccccn2)c1 [Example 10]
Measured parameter: Cmax
Test result: 14.6
//
Compound: CP(C)(=O)c1ccc(Nc2ccc(C(F)(F)F)cc2)c(-c2ncccn2)c1 [Example 12]
Measured parameter: Cmax
Test result: 16.1

Given the compound CP(C)(=O)c1ccc2c(c1)c1ncccc1n2-c1ccc(C(F)(F)F)cc1 [Example 4] , what is its reported Cmax?
9.36

====

- Assay method text: Pharmacokinetic test in rats
- Format: in vivo
- Run parameters: rat, plasma; SD rats, PO 10 mg/kg
- Experimental: In this experimental example, the pharmacokinetic behavior of the test compounds after administration by intravenous injection (IV) and oral gavage (PO) in SD rats was tested. […] On the day of administration, rats were weighed for actual body weight, and the administration volume was calculated. […] Plasma concentrations were determined by the LC-MS/MS method. […] The relevant pharmacokinetic parameters were calculated by a linear-log trapezoidal method.
Measured parameter: MRT (h)
Give bare numbers, in h.

Here is how some compounds turned out for MRT.
Compound: Cn1cnc(-c2cc(P(C)(C)=O)ccc2Nc2ccc(C(F)(F)F)cc2)c1 [Example 14]
MRT, h: 15

Compound: CP(C)(=O)c1ccc2c(c1)c1ccccc1n2-c1ccc(C(F)(F)F)cc1 [Example 1]
MRT, h: 69.9

Please give MRT, item by item, for the list that follows.
1. CP(C)(=O)c1ccc(Nc2ccc(C(F)(F)F)cc2)c(-c2ccccn2)c1 [Example 10]
2. Cn1cnc(-c2cc(P(C)(C)=O)cnc2Nc2ccc(C(F)(F)F)cc2)c1 [Example 8]
3. CP(C)(=O)c1cnc(Nc2ccc(C(F)(F)F)cc2)c(-c2cn3c(n2)CCC3)c1 [Example 22]
4. CP(C)(=O)c1ccc(Nc2ccc(C(F)(F)F)cc2)c(-c2ncccn2)c1 [Example 12]
5. CP(C)(=O)c1ccc2c(Oc3ccc(C(F)(F)F)cc3)cccc2c1 [Example 7]

1. 25.7
2. 20.6
3. 9.6
4. 24.9
5. 28.5

====

- Assay method text: Pharmacokinetic test in mice (low dose)
- Format: in vivo, Balb/c mice
- Run parameters: Balb/c, mouse, in vivo, iv, 2 mg/kg
Measured parameter: half-life (h)
Numbers only, in h.

Molecule: CC(C)NC(=O)c1ccc2c(Oc3ccc(C(F)(F)F)cc3)cccc2c1 [Comparative compound B1, reference compound]
U: h
Test result: 1.4

Could you share which half-life value was measured for CNS(=O)(=O)c1ccc2c(Oc3ccc(C(F)(F)F)cc3)cccc2c1 [Comparative compound B2, reference compound] ?
19.6

====

- Assay method text: in vivo
- Run parameters: mouse, plasma, po, 200 mg/kg
Measured parameter: Cmax (µM)
One number for each entry, in µM.

Smiles input: Cn1cnc(-c2cc(P(C)(C)=O)ccc2Nc2ccc(C(F)(F)F)cc2)c1
Measured parameter: Cmax
Test result: 141

The record that follows has no Cmax shown yet.
Looking for the measured Cmax of `CP(C)(=O)c1ccc(Nc2ccc(C(F)(F)F)cc2)c(-c2ccccn2)c1` , can you help?
148

====

Kindly state AUC(0-t) for each of the entries shown.
- Assay method text: in vivo
- Run parameters: mouse, plasma, po, 200 mg/kg
For clarity, give the value followed by its unit.

Solved entries:
Compound: Cn1cnc(-c2cc(P(C)(C)=O)cnc2Nc2ccc(C(F)(F)F)cc2)c1
AUC(0-t): 2430 µM·h
--
Compound: CP(C)(=O)c1ccc(Nc2ccc(C(F)(F)F)cc2)c(-c2ccccn2)c1
AUC(0-t): 3380 µM·h
--
Compound: CNS(=O)(=O)c1ccc2c(Oc3ccc(C(F)(F)F)cc3)cccc2c1 [Comparative compound B2, reference compound]
AUC(0-t): 902 µM·h
--
Compound: Cn1cnc(-c2cc(P(C)(C)=O)ccc2Nc2ccc(C(F)(F)F)cc2)c1
AUC(0-t): 3140 µM·h
--
Compound: CNS(=O)(=O)c1ccc(Nc2ccc(C(F)(F)F)cc2)c(-c2cn(C)cn2)c1 [Comparative compound B3, reference compound]
AUC(0-t): 1040 µM·h

Attention now shifts to the item below.
Which AUC(0-t) value is on record for `CP(C)(=O)c1cnc(Nc2ccc(C(F)(F)F)cc2)c(-c2cn3c(n2)CCC3)c1` ?
2520 µM·h

====

- Assay method text: Pharmacokinetic test in rats
- Type: in vivo
- Run parameters: rat, plasma; SD rats, PO 10 mg/kg vs IV 2 mg/kg
Measured parameter: bioavailability (%)
Numbers only, in %.

Examples with answers:
Compound: CP(C)(=O)c1cnc(Nc2ccc(C(F)(F)F)cc2)c(-c2cn3c(n2)CCC3)c1 [Example 22]
U: %
bioavailability: 95

Compound: Cn1cnc(-c2cc(P(C)(C)=O)cnc2Nc2ccc(C(F)(F)F)cc2)c1 [Example 8]
U: %
bioavailability: 133

Compound: CP(C)(=O)c1ccc(Nc2ccc(C(F)(F)F)cc2)c(-c2ncccn2)c1 [Example 12]
U: %
bioavailability: 65

Go through the items and report each one's bioavailability.
1. CP(C)(=O)c1ccc(Nc2ccc(C(F)(F)F)cc2)c(-c2ccccn2)c1 [Example 10]
2. CP(C)(=O)c1ccc2c(Oc3ccc(C(F)(F)F)cc3)cccc2c1 [Example 7]
3. Cn1cnc(-c2cc(P(C)(C)=O)ccc2Nc2ccc(C(F)(F)F)cc2)c1 [Example 14]
4. CP(C)(=O)c1ccc2c(c1)c1ccccc1n2-c1ccc(C(F)(F)F)cc1 [Example 1]

140
142
98
107
